# ASSAY_NAME: Morning blood exposure (drug plasma concentrations) in mdx and WT mice
# Type: in vivo
# CONDITION_LABEL: C57BL/6 (WT), mouse, oral, 50 mg/kg/d-dosed WT mice, read-out: Morning blood exposure (average±SEM)
METRIC: concentration at 4 weeks (µM)

>>> val("COc1ccc2c(c1)CN(Cc1ccc(C(=O)O)cc1)CCS2 [Compound 1]")
72.8

---

# EXPERIMENTAL_SYSTEM: PKA-phosphorylated RyR1 (Homo sapiens, UniProt P21817)
# Sequence (P21817 whole entry): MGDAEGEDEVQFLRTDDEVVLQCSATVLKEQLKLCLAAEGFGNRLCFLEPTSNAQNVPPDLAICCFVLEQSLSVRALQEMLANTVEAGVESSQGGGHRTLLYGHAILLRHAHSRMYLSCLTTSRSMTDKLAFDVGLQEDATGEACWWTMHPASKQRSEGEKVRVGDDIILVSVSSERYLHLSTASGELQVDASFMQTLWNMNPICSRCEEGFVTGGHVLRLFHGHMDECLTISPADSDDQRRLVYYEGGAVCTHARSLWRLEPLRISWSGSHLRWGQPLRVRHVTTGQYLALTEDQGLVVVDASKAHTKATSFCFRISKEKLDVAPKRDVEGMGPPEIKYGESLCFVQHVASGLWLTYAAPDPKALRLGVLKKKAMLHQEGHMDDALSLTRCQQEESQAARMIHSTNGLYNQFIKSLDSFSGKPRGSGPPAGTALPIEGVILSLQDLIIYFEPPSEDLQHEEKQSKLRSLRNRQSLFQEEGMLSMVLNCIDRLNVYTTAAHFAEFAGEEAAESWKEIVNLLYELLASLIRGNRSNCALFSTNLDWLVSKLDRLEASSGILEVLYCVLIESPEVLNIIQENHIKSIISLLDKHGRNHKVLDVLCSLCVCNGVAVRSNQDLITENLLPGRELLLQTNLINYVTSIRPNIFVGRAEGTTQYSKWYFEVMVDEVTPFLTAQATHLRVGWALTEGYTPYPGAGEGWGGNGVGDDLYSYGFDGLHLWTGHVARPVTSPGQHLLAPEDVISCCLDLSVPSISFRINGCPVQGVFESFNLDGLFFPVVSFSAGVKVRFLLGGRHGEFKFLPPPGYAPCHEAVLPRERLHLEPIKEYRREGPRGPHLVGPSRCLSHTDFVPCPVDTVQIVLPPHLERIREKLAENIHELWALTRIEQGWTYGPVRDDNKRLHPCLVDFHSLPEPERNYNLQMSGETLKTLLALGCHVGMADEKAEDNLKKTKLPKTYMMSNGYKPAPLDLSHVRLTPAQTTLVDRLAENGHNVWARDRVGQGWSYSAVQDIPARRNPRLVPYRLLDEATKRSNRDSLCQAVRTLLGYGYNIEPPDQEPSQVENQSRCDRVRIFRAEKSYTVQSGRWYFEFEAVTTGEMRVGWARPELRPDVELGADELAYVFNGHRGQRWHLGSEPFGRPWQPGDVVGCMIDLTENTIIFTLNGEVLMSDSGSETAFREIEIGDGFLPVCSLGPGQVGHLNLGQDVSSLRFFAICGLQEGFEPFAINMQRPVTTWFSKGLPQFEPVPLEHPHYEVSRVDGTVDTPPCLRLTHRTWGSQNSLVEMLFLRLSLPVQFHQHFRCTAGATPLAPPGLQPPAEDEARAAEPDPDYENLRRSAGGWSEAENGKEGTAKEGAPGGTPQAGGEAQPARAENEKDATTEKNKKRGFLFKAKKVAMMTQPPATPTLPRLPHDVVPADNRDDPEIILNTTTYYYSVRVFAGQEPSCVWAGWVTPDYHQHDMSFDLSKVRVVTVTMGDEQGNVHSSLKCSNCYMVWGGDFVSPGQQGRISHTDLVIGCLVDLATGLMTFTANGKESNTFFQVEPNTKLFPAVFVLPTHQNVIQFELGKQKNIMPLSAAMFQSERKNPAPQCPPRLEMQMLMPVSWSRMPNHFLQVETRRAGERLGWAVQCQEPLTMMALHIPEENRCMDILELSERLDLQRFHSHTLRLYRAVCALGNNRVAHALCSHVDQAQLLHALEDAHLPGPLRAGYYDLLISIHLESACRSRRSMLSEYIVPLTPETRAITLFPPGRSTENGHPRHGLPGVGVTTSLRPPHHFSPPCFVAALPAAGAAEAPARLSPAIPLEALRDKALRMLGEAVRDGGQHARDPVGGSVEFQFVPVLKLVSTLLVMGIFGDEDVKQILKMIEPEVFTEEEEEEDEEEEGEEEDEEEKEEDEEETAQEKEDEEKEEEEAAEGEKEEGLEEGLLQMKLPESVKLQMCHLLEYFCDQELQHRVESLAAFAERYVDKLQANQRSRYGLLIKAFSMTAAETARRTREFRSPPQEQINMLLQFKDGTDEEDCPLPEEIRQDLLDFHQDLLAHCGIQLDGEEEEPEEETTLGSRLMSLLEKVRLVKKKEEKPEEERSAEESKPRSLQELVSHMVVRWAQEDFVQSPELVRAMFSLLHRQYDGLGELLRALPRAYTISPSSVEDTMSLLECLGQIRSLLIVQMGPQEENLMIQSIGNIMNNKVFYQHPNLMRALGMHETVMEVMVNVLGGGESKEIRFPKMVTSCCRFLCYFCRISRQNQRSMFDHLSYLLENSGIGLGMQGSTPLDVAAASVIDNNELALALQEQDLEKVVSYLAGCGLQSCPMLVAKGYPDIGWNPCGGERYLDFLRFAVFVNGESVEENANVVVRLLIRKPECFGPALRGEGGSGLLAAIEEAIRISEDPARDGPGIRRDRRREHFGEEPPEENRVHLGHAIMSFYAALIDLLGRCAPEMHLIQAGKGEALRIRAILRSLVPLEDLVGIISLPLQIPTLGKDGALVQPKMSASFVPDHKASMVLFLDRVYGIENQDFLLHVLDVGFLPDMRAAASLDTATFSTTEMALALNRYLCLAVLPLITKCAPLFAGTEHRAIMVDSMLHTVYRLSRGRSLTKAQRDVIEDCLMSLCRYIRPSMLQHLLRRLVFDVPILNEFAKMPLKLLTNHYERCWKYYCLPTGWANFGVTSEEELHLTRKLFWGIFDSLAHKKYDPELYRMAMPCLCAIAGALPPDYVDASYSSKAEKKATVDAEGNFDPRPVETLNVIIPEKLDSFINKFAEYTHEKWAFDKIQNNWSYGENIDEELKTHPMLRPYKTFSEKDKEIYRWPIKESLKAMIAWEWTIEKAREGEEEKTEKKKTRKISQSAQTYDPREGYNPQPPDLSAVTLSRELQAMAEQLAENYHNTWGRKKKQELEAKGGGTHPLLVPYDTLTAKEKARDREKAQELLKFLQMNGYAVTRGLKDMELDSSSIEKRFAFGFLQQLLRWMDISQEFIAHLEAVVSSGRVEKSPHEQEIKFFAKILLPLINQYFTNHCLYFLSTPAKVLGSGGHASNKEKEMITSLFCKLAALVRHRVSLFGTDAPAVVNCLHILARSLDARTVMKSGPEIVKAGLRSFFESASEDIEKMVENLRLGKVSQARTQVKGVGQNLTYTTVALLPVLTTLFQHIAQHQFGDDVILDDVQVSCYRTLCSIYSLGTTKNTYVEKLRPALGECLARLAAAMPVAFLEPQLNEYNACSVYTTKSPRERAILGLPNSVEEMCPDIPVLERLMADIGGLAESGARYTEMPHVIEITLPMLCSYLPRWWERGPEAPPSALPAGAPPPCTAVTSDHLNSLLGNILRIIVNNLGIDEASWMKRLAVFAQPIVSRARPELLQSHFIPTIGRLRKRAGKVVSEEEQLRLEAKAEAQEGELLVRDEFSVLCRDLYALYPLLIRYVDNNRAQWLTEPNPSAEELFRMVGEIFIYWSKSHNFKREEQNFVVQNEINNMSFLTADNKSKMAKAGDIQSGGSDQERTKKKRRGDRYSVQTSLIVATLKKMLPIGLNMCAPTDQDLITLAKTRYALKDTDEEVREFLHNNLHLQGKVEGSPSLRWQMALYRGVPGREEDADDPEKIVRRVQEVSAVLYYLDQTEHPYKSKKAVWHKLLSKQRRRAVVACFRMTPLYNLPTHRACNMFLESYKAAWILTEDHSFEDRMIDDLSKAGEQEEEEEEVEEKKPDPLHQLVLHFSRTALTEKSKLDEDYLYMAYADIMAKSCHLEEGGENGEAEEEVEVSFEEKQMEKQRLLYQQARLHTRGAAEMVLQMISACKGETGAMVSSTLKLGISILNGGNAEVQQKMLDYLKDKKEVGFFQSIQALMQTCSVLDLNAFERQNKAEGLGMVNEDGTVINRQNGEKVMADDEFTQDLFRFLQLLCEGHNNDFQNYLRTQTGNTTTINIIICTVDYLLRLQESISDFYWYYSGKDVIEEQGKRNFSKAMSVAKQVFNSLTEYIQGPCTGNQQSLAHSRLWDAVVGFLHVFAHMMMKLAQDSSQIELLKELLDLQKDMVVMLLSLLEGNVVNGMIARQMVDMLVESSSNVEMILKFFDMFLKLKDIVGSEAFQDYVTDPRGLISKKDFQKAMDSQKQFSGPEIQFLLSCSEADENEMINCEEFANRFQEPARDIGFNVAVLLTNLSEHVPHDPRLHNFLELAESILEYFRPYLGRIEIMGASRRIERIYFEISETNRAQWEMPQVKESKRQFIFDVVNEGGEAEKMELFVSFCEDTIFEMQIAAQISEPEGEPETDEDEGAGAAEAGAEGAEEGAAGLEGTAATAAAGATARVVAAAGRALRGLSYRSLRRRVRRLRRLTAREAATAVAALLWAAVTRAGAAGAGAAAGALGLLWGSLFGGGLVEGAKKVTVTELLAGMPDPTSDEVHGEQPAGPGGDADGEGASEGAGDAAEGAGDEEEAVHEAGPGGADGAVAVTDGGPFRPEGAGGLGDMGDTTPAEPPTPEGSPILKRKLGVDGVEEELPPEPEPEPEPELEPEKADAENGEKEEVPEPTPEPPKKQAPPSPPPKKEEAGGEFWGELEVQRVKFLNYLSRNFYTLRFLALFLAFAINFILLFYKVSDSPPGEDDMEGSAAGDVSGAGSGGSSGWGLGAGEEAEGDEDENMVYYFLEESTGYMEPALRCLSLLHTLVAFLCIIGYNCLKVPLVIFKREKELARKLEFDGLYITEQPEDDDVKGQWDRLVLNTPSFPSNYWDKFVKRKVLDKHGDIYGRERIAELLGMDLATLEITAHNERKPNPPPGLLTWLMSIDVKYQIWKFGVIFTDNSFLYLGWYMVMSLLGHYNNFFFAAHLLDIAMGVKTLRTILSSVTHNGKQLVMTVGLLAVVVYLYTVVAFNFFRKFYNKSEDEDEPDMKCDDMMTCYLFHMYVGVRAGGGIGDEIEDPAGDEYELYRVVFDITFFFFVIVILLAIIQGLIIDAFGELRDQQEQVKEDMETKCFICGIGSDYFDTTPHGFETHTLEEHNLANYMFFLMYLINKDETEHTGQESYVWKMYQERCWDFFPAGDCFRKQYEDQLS
# Sequence (P62942 whole entry partner): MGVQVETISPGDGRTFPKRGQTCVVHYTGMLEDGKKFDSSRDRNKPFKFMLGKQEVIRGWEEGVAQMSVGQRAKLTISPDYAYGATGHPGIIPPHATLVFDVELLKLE
# ASSAY_NAME: biochemical
METRIC: EC50

>>> val("COc1ccc2c(c1)CN(Cc1cccc(C(=O)O)c1)CCS2")
"~150 nM"

---

# ASSAY_NAME: Morning blood exposure (drug plasma concentrations) in mdx and WT mice
# Type: in vivo
# CONDITION_LABEL: C57BL/10ScSn-DMD^mdx/J (mdx), mouse, oral, 5 mg/kg/d-dosed mdx mice, read-out: Morning blood exposure (average±SEM)
METRIC: concentration at 4 weeks (µM)

>>> val("COc1ccc2c(c1)CN(Cc1ccc(C(=O)O)cc1)CCS2 [Compound 1]")
3.3
